Molecular target: T1, cynomolgus monkey IL-33 expressed with a C-terminal hexahistidine tag (cynomolgus monkey)
T1 construct: also called MfIL-33-6His; Mf-IL-33-6His
T1 chain: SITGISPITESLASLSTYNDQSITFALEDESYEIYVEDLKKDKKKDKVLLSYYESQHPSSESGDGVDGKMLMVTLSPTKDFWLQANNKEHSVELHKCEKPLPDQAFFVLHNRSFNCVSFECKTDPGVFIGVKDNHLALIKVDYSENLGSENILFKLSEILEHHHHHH
Test: BLI; captured MfIL-33-6His, mAb-1 step with Buffer
Protocol: Binding competition between a panel of different anti-IL-33 monoclonal antibodies was determined using a real time, label-free bio-layer interferometry assay on an Octet® HTX biosensor (ForteBio, A Division of Pall Life Sciences). […] The real-time binding response was monitored during the experiment, and the maximum binding response for each binding step was recorded. […]
Documented mAb-2 Binding to the Pre-complex of mAb-1 & MfIL-33-6xHis across a set of binders
Answer with a number only, understood to be in nm.

H4H9663P (antibody, human IgG4, V domains shown, Human IgG4 Fc (H4H)) VH: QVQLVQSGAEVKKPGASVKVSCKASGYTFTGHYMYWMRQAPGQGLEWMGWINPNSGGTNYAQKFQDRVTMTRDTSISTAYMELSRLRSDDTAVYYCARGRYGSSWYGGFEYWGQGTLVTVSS VL: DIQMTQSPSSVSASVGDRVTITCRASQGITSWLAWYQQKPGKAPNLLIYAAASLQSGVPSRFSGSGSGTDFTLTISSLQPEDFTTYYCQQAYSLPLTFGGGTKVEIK
0.31

--- query ---
State the recorded mAb-2 Binding to the Pre-complex of mAb-1 & MfIL-33-6xHis for this entry: H4H9671P (antibody, human IgG4, V domains shown, Human IgG4 Fc (H4H)) VH: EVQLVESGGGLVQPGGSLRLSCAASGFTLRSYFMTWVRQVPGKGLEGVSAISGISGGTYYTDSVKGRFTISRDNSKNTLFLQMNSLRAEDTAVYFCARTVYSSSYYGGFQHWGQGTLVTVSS VL: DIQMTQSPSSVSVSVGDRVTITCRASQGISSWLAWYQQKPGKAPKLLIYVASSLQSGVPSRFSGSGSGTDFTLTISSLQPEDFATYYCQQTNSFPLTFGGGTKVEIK 0.29

Data provenance is patent US20160362487A1.
